Tested on: LCLC-97TM1
Assay: relative viability (nuclei count vs DMSO), 5 days (fraction); higher = more cells survive
Conditions: first compound 20 µM
Measure Name: relative viability
Form: value (number only, do not type unit).

Example cases with answers are listed next.
Compound	Measure Name	Numeric Readout
COCC1(CO)C(=O)C2CCN1CC2 (stereo not drawn) [PRIMA-1MET] + Cc1cc(Nc2cc(N3CCN(C)CC3)nc(Sc3ccc(NC(=O)C4CC4)cc3)n2)n[nH]1 [Tozasertib] (partner 0.1 µM)	relative viability	0.123
COCC1(CO)C(=O)C2CCN1CC2 (stereo not drawn) [PRIMA-1MET] + CC(=O)c1c(C)c2cnc(Nc3ccc(N4CCNCC4)cn3)nc2n(C2CCCC2)c1=O [Palbociclib] (partner 0.5 µM)	relative viability	0.206

Now consider a different compound.
Task item: Please report the measured relative viability for COCC1(CO)C(=O)C2CCN1CC2 (stereo not drawn) [PRIMA-1MET] + O=C(c1cc(Cc2n[nH]c(=O)c3ccccc23)ccc1F)N1CCN(C(=O)C2CC2)CC1 [Olaparib] (partner 8 µM)
Reply: 0.236
